Assay: in vivo
Conditions: mouse, ip

- molecule: "NC(=O)NN=Cc1ccc(Oc2ccc(F)cc2)cc1 [Compound 4b]"
  TD50 (mg/kg): 108

---

neurotoxicity screen TD50 overview
Tested on: mice
Settings: intraperitoneal injection in mice; time t (h) per compound as in the table

- molecule: "CCCCc1ccc(Oc2ccc(C=NNC(N)=O)cc2)cc1"
  neurotoxicity screen TD50 (mg/kg): 131.27
- molecule: "NC(=O)NN=Cc1ccc(Sc2ccc(Br)cc2)cc1 [Compound 16c]"
  neurotoxicity screen TD50 (mg/kg): 122.57
- molecule: "NC(=O)NN=Cc1ccc(Sc2ccc(Cl)cc2)cc1 [Compound 16b]"
  neurotoxicity screen TD50 (mg/kg): 53.18
- molecule: "NC(=O)NN=Cc1ccc(Sc2ccc(F)cc2)cc1 [Compound 16a]"
  neurotoxicity screen TD50 (mg/kg): 88.00
- molecule: "Cc1ccc(Oc2ccc(C=NNC(N)=O)cc2)cc1"
  neurotoxicity screen TD50 (mg/kg): 203.73
- molecule: "CC(C)(C)CC(C)(C)c1ccc(Oc2ccc(C=NNC(N)=O)cc2)cc1"
  neurotoxicity screen TD50 (mg/kg): 124.53
- molecule: "CC(=NNC(N)=O)c1ccc(Oc2ccccc2)cc1 [Compound 13a]"
  neurotoxicity screen TD50 (mg/kg): 73.48
- molecule: "NC(=O)NN=Cc1ccc(Sc2ccccc2)cc1 [Compound 15a]"
  neurotoxicity screen TD50 (mg/kg): 181.00
- molecule: "NC(=O)NN=Cc1ccc(OS(=O)(=O)c2ccccc2)cc1 [Compound 15f]"
  neurotoxicity screen TD50 (mg/kg): 113.00
- molecule: "CCC(=NNC(N)=O)c1ccc(Oc2ccc(F)cc2)cc1 [Compound 13f]"
  neurotoxicity screen TD50 (mg/kg): 35.26
